Test system: Saccharomyces cerevisiae BY4741 SeMeCo community
Assay: z-score of subpopulation abundance vs DMSO median, subpopulation auxotrophic for LU; higher = larger share of this subpopulation than in DMSO controls
Details: 10 µM; 24 h; SM minimal medium; subpopulation (auxotrophy): LU
Where a name gives a salt, the structure may show the parent alone.
Tag: 1 if measured z-score of subpopulation abundance is not below -0.03, -1 if it is.

Task: z-score of subpopulation abundance >= -0.03 for NC[C@H]1O[C@H](O[C@H]2[C@H](O[C@@H]3O[C@H](CO)[C@@H](O)[C@H]3O)[C@@H](O)[C@H](N)C[C@@H]2N)[C@H](N)[C@@H](O)[C@@H]1O [Ribostamycin Sulfate] ?
Output: 1

Task: Hi, just wondering whether COc1cc(/C=C/C(=O)N2CCN(CC(=O)N3CCCC3)CC2)cc(OC)c1OC [Cinepazide maleate] shows z-score of subpopulation abundance of -0.03 or higher.
Output: 1

Task: Decide: z-score of subpopulation abundance of C[C@H](NCc1ccc(OCc2cccc(F)c2)cc1)C(N)=O [Safinamide] >= -0.03?
Output: 1

Task: Is it the case that Cc1ccc(-c2cc(C(F)(F)F)nn2-c2ccc(S(N)(=O)=O)cc2)cc1 has z-score of subpopulation abundance reaching or exceeding -0.03?
Output: -1

Task: Does z-score of subpopulation abundance meet or surpass -0.03 for COc1cnc(NS(=O)(=O)c2ccc(N)cc2)nc1 ?
Output: 1

Task: Textbook exercise: given the entry C[C@H]1COc2c(N3CCN(C)CC3)c(F)cc3c(=O)c(C(=O)O)cn1c23 , state whether its z-score of subpopulation abundance is greater than or equal to -0.03.
Output: -1

Task: Answer whether z-score of subpopulation abundance of CCCC1CC(C(=O)NC(C(C)Cl)C2OC(SC)C(O)C(O)C2O)N(C)C1 (stereo unspecified) [Clindamycin alcoholate] is greater than or equal to -0.03.
Output: 1

Task: Reported z-score of subpopulation abundance at or above -0.03? O=C1c2c(O)ccc(O)c2C(=O)c2c(NCCNCCO)ccc(NCCNCCO)c21 [Mitoxantrone 2HCl]
Output: 1

Task: Is z-score of subpopulation abundance for O=C1Cc2cc(CCN3CCN(c4nsc5ccccc45)CC3)c(Cl)cc2N1 [Ziprasidone HCl] at or above -0.03?
Output: -1

Task: Does C#C[C@]1(O)CC[C@H]2[C@@H]3CCc4cc(OC5CCCC5)ccc4[C@H]3CC[C@@]21C have a reported z-score of subpopulation abundance of at least -0.03?
Output: 1

Task: Say whether NC(=O)C(c1ccccc1)(c1ccccc1)[C@@H]1CCN(CCc2ccc3c(c2)CCO3)C1 shows z-score of subpopulation abundance of -0.03 or more.
Output: -1

Task: Decide: is the reported value of z-score of subpopulation abundance for CCCOc1ccc2c(c1)CC[C@@H]1[C@@H]2CC[C@]2(C)[C@@H](OC)CC[C@@H]12 equal to or greater than -0.03?
Output: 1

Task: # bool: z-score of subpopulation abundance of CC(=O)NS(=O)(=O)c1ccc(N)cc1 [Sulfacetamide Sodium] >= -0.03
Output: 1

Task: Tell me whether z-score of subpopulation abundance is at least -0.03 here: Nc1ccc(S(N)(=O)=O)cc1 [Sulfanilamide]
Output: -1

Task: Hello, I need to know if CCC(C)(C)c1ccc(CC(C)CN2C[C@@H](C)O[C@@H](C)C2)cc1 (stereo partly specified) [Amorolfine HCl] has measured z-score of subpopulation abundance not below -0.03. Thanks!
Output: -1

Task: Exam item: decide whether the reported z-score of subpopulation abundance for C/C=C1\[C@H]2C=C(C)C[C@]1(N)c1ccc(=O)[nH]c1C2 [(-)-Huperzine A (HupA)] is at least -0.03.
Output: -1

Task: # check: z-score of subpopulation abundance of CN(C)CCOc1ccc(/C(=C(/CCCl)c2ccccc2)c2ccccc2)cc1 [Toremifene Citrate] is greater than or equal to -0.03
Output: 1

Task: // inclusive: z-score of subpopulation abundance at least -0.03? input: Clc1ccc(COC(Cn2ccnc2)c2ccc(Cl)cc2Cl)cc1 (stereo unspecified)
Output: -1

Task: Entry Cc1c(OCC(F)(F)F)ccnc1C[S+]([O-])c1nc2ccccc2[nH]1 (stereo unspecified) : is its z-score of subpopulation abundance no less than -0.03?
Output: -1

Task: Answer whether z-score of subpopulation abundance of CO/N=C(\C(=O)N[C@@H]1C(=O)N2C(C(=O)O)=CCS[C@H]12)c1csc(N)n1 is greater than or equal to -0.03.
Output: -1

Task: Given CC(C(O)c1ccc(O)cc1)N1CCC(Cc2ccccc2)CC1 (stereo unspecified) [Ifenprodil Tartrate] , state whether its z-score of subpopulation abundance is at least -0.03.
Output: -1

Task: # bool: z-score of subpopulation abundance of C#C[C@]1(O)CC[C@H]2[C@@H]3CCC4=CC(=O)CC[C@@H]4[C@H]3C(=C)C[C@@]21CC >= -0.03
Output: 1

Task: Kindly determine if z-score of subpopulation abundance recorded for Nc1c(CC(=O)O)cccc1C(=O)c1ccccc1 [Amfenac Sodium Monohydrate] is above or exactly -0.03.
Output: -1

Task: Does the reported z-score of subpopulation abundance for CC1=C(C(=O)O)N2C(=O)[C@@H](NC(=O)[C@H](N)c3ccccc3)[C@H]2SC1 fall at or above the -0.03 mark?
Output: -1

Task: Could you verify whether the entry O=C(O)c1ccccc1C(=O)Nc1ccc(S(=O)(=O)Nc2nccs2)cc1 shows z-score of subpopulation abundance of no less than -0.03?
Output: -1

Task: Please check the record CO/N=C(\C(=O)N[C@@H]1C(=O)N2C(C(=O)O)=C(CSC(=O)c3ccco3)CS[C@H]12)c1csc(N)n1 and state if its z-score of subpopulation abundance is at or above -0.03.
Output: 1

Task: Exam item: decide whether the reported z-score of subpopulation abundance for COCCCN1CCC(NC(=O)c2cc(Cl)c(N)c3c2OCC3)CC1 [Prucalopride] is at least -0.03.
Output: 1

Task: Entry O=c1c(-c2ccc(O)cc2)coc2c([C@@H]3O[C@H](CO)[C@@H](O)[C@H](O)[C@H]3O)c(O)ccc12 : is its z-score of subpopulation abundance no less than -0.03?
Output: -1

Task: Hi, just wondering whether CCOC(=O)C1=C(C)NC(C)=C(C(=O)OCC)C1c1ccccc1/C=C/C(=O)OC(C)(C)C shows z-score of subpopulation abundance of -0.03 or higher.
Output: -1

Task: // inclusive: z-score of subpopulation abundance at least -0.03? input: CCCCCOc1ccc(-c2cc(-c3ccc(C(=O)N[C@H]4C[C@@H](O)[C@@H](O)NC(=O)[C@@H]5[C@@H](O)[C@@H](C)CN5C(=O)[C@H]([C@H](O)CC(N)=O)NC(=O)[C@H]([C@H](O)[C@@H](O)c5ccc(O)c(OS(=O)(=O)O)c5)NC(=O)[C@@H]5C[C@@H](O)CN5C(=O)[C@H]([C@@H](C)O)NC4=O)cc3)no2)cc1 [Micafungin Sodium]
Output: 1

###

Tested on: Saccharomyces cerevisiae BY4741 SeMeCo community
Test: mean cell size (pixel area) (pixels); higher = larger cells
Conditions: 10 µM; 24 h; SM minimal medium
readout name: mean cell size
Give a plain numeric answer without units written out.

Task: What value of mean cell size on Saccharomyces cerevisiae BY4741 SeMeCo community does CC(C)NNC(=O)c1ccncc1 have?
Output: 12.4

Task: Lookup: mean cell size / Saccharomyces cerevisiae BY4741 SeMeCo community / CCCN1C[C@H](C)[C@@H](O)[C@](C)(O)[C@@H](CC)OC(=O)[C@H](C)[C@@H](O[C@H]2C[C@@](C)(OC)[C@@H](O)[C@H](C)O2)[C@H](C)[C@@H](O[C@@H]2O[C@H](C)C[C@H](N(C)C)[C@H]2O)[C@](C)(O)C[C@H]1C
Output: 12.3

Task: Form entry - test system: Saccharomyces cerevisiae BY4741 SeMeCo community; read-out: mean cell size; compound: O=C(Nc1c(Cl)cncc1Cl)c1ccc(OC(F)F)c(OCC2CC2)c1
Output: 12.4

Task: Which measured mean cell size belongs to Cc1onc(-c2ccccc2)c1C(=O)N[C@@H]1C(=O)N2[C@@H]1SC(C)(C)[C@@H]2C(=O)O [Oxacillin sodium monohydrate] , tested on Saccharomyces cerevisiae BY4741 SeMeCo community?
Output: 12

Task: Please state recorded mean cell size (tested on Saccharomyces cerevisiae BY4741 SeMeCo community) of CCC(C)(C)C(=O)O[C@H]1C[C@@H](C)C=C2C=C[C@H](C)[C@H](CC[C@@H]3C[C@@H](O)CC(=O)O3)[C@H]21
Output: 11.7

Task: For the record Clc1ccccc1C(c1ccccc1)(c1ccccc1)n1ccnc1 , what value of mean cell size is listed for Saccharomyces cerevisiae BY4741 SeMeCo community?
Output: 11.9

Task: Fill in the recorded mean cell size for this compound, with Saccharomyces cerevisiae BY4741 SeMeCo community as test system: O=C(NCCO[N+](=O)[O-])c1cccnc1
Output: 12.4
